# Test system: Escherichia coli TOP10;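 further: peptides expressed intracellularly from a pBAD plasmid library in pooled LB shake-flask culture, induced with 0.3% L-arabinose, DNA abundance read by NGS, three biological replicates, DESeq2 with apeglm shrinkage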
# assay.info: shrunken log2 fold change of peptide-encoding DNA abundance (4.5 h post-induction vs induction); higher = less antimicrobial activity (less host growth inhibition)
# condition.description: time post-induction: 4.5 h; library: site-saturation at positions 5, 18, 19, 20
// classify(record): look up shrunken log2 fold change in ranges low: < -0.03; medium: ≥ -0.03 and < 0.1; high: ≥ 0.1

Record excerpt, results attached:
## Input Which bin, given its shrunken log2 fold change, does RRIRTRPPRLPRPRPRPVWCPRP occupy?
## Output low

## Input Lab note: sort RRIRVRPPRLPRPRPRPQVIPRP into the matching shrunken log2 fold change band.
## Output medium

## Input # bin lookup: classify RRIRCRPPRLPRPRPRPWSRPRP by its shrunken log2 fold change
## Output low

## Input Which class holds RRIRRRPPRLPRPRPRPVDVPRP ?
## Output high

## Input Record RRIRYRPPRLPRPRPRPAHQPRP — which class?
## Output high

Further cases:
## Input Note: place this sequence into its band. Item: RRIRIRPPRLPRPRPRPNRSPRP
## Output medium

## Input Lab note: sort RRIRGRPPRLPRPRPRPSEPPRP into the matching shrunken log2 fold change band.
## Output high

## Input Could you place RRIRKRPPRLPRPRPRPLLWPRP in its proper category? Many thanks.
## Output high

## Input Bin this entry: RRIRGRPPRLPRPRPRPWEYPRP
## Output medium

## Input State the band of RRIRCRPPRLPRPRPRPCNAPRP
## Output low

## Input # bin lookup: classify RRIRQRPPRLPRPRPRPTKNPRP by its shrunken log2 fold change
## Output medium

## Input Category of RRIRDRPPRLPRPRPRPKFIPRP :
## Output low

## Input Assign a category based on measured shrunken log2 fold change for RRIRGRPPRLPRPRPRPIYNPRP and give only the class name.
## Output low

Origin of measurements: the supplement of paper PMC9112550
